# TARGET_SYSTEM: human Nurr1 (hinge region and ligand binding domain) (Homo sapiens)
# Construct: expressed in transfected cells; host or cells: HEK293T
# PROTOCOL_NOTES: Gal4-Nurr1 hybrid reporter gene assay
# Assay type: cell-based
# EXPERIMENTAL_PARAMETERS: Gal4-Nurr1 hybrid reporter, HEK293T; mean ± SD, n ≥ 3; read-out: EC50(Nurr1)
REPORTED_PROPERTY: EC50 (nM)

// known answers, use as guide
| COMPOUND | OUTPUT_UNIT | RECORDED_RESULT |
| --- | --- | --- |
| Cc1nc2c(Cl)cccn2c1NC(=O)c1ccc(-c2ccc(OC3CC3)cc2)o1 [Compound 42] | nM | 120 |
| Cc1ccc(-c2nc3c(Cl)cccn3c2N)cc1C [Compound 25] | nM | 14000 |
| Cc1nc2c(Cl)cccn2c1NC(=O)c1ccc(-c2ccc(N(C)C)cc2)o1 [Compound 36] | nM | 90 |
| CNc1ccc(-c2ccc(C(=O)Nc3c(C)nc4c(Cl)cccn34)o2)cc1 [Compound 35] | nM | 300 |
| CN(C)c1ccc(-c2ccc(C(=O)Nc3c(-c4ccc(Cl)c(Cl)c4)nc4c(Cl)cccn34)o2)cc1 [Compound 37] | nM | 40 |

I = Cc1nc2c(Cl)cccn2c1NC(=O)c1ccc(-c2ccccc2)s1 [Compound 28]
II = Nc1c(-c2ccc(Cl)cc2)nc2c(Cl)cccn12 [Compound 17]
Please tell me which of the two, I or II , has the higher reported EC50 value. Lab note: record the label of whichever item you select. II
(II: 15000 nM, I: 3200 nM)

P = Cc1nc2c(Cl)cccn2c1NC(=O)c1ccc(-c2ccc(Cl)cc2)o1 [Compound 26]
Q = Cc1nc2c(Cl)cccn2c1NC(=O)c1ccc(-c2ccc(OC(C)C)cc2)o1 [Compound 41]
Parameter metric = EC50. Return the lower-valued option from P and Q . Lab note: record the label of whichever item you select. Q
(Q: 120 nM, P: 1600 nM)

----------
# PROTOCOL_NOTES: Microsomal stability
# Type: in vitro ADME, rat
# EXPERIMENTAL_PARAMETERS: male, Sprague-Dawley, pH 7.4; rat liver microsomes, 10 µM, LCMS
REPORTED_PROPERTY: half-life at 10 µM (min)

I = Cc1nc2c(Cl)cccn2c1NC(=O)c1ccc(-c2ccc(OC3CC3)cc2)o1
II = Cc1nc2c(Cl)cccn2c1NC(=O)c1ccc(-c2ccc(N(C)C)cc2)o1
III = Cc1nc2c(Cl)cccn2c1NC(=O)c1ccc(-c2ccc(OC(C)C)cc2)o1
IV = COc1ccc(-c2ccc(C(=O)Nc3c(C)nc4c(Cl)cccn34)o2)cc1
Order the records by half-life at 10 µM, with each subsequent value no larger than the one before. Labels, ranked as asked. I, III, IV, II
(I: 78 min, III: 42 min, IV: 18 min, II: 6.3 min)

----------
# TARGET_SYSTEM: human Nurr1 (hinge region and ligand binding domain) (Homo sapiens, UniProt P43354)
# Construct: expressed in transfected cells; host or cells: HEK293T
# Sequence (P43354 360-595 limits assumed): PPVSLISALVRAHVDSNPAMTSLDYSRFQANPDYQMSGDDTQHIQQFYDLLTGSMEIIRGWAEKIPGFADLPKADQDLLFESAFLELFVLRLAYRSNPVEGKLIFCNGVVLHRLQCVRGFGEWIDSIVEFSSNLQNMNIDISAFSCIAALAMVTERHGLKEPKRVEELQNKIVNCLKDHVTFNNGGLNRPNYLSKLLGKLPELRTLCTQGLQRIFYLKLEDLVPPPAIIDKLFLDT
# PROTOCOL_NOTES: Gal4-Nurr1 hybrid reporter gene assay
# Format: cell-based
# EXPERIMENTAL_PARAMETERS: maximum effect vs. 0.1% DMSO control; mean ± SD, n ≥ 3
REPORTED_PROPERTY: max. activation (fold)

| MOLECULE | TARGET_SYSTEM | OUTPUT_UNIT | RECORDED_RESULT |
| --- | --- | --- | --- |
| Cc1ccc(-c2ccc(C(=O)Nc3c(C)nc4c(Cl)cccn34)o2)cc1 [Compound 32] | human Nurr1 (hinge region and ligand binding domain) (Homo sapiens, UniProt P43354) | fold | 2.0 |
| CN(C)c1ccc(-c2ccc(C(=O)Nc3c(-c4ccc(Cl)c(Cl)c4)nc4c(Cl)cccn34)o2)cc1 [Compound 37] | human Nurr1 (hinge region and ligand binding domain) (Homo sapiens, UniProt P43354) | fold | 1.53 |
| Cc1ccc(-c2nc3c(Cl)cccn3c2N)cc1 [Compound 20] | human Nurr1 (hinge region and ligand binding domain) (Homo sapiens, UniProt P43354) | fold | 2.0 |
| Cc1nc2c(Cl)cccn2c1NC(=O)c1ccc(-c2ccccc2)s1 [Compound 28] | human Nurr1 (hinge region and ligand binding domain) (Homo sapiens, UniProt P43354) | fold | 2.1 |
| Cc1nc2c(Cl)cccn2c1NC(=O)c1ccc(-c2ccc(Cl)cc2)o1 [Compound 26] | human Nurr1 (hinge region and ligand binding domain) (Homo sapiens, UniProt P43354) | fold | 1.8 |
| Cc1nc2c(Cl)cccn2c1NC(=O)c1ccc(-c2ccc(C(F)(F)F)cc2)o1 [Compound 31] | human Nurr1 (hinge region and ligand binding domain) (Homo sapiens, UniProt P43354) | fold | 1.8 |
